FYI, the data here is from paper PMC7948418.

# TARGET DESC: GIPR (Homo sapiens)
# Sequence (P48546 22-466): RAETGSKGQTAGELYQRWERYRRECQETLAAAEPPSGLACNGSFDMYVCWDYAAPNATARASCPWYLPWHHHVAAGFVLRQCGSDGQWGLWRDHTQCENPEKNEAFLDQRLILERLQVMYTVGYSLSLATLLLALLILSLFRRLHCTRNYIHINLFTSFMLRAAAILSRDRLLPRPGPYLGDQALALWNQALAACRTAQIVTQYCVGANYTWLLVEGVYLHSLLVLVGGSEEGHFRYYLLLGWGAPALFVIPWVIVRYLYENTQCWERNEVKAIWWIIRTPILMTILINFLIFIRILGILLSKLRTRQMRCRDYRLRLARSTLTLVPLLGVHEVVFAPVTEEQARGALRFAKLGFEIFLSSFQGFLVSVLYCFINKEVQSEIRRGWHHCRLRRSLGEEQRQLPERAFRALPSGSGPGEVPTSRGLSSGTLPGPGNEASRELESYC
# TEST METHOD NOTES: cAMP response (HTRF) in PathHunter CHO-GIPR cells
# Format: cell-based
Square brackets hold non-standard residues; d marks the D form. Ends that are not written are not given here.
This section presents substances with their documented pEC50 values.
// pEC50: -log10(molar conc.)

- SUBSTANCE: "YGEGTFISDYSIAMDKIHQQDFVNWLLAQKGKKNDWKHNITQ [GIP-Gly2]"
  pEC50: 9.10

Asked: Provide measured pEC50 value, entry: YA[dQ]GTFISDYSIAMDKIHQQDFVNWLLAQKGKKNDWKHNITQ [GIP-dGln3]
Given back: 7.60

Asked: Provide measured pEC50 value, entry: FAEGTFISDYSIAMDKIHQQDFVNWLLAQKGKKNDWKHNITQ [GIP-Phe1]
Given back: 8.70
